Values were extracted from patent US9227935B2.

Please go through the items and note down their IC50.
Molecular target: human DGAT1 (Homo sapiens)
Construct: FLAG (N); made in house; host or cells: SF9 insect cells (baculovirus, pFastBac); total cell membranes used as the enzyme source
Sequence (O75907 whole entry): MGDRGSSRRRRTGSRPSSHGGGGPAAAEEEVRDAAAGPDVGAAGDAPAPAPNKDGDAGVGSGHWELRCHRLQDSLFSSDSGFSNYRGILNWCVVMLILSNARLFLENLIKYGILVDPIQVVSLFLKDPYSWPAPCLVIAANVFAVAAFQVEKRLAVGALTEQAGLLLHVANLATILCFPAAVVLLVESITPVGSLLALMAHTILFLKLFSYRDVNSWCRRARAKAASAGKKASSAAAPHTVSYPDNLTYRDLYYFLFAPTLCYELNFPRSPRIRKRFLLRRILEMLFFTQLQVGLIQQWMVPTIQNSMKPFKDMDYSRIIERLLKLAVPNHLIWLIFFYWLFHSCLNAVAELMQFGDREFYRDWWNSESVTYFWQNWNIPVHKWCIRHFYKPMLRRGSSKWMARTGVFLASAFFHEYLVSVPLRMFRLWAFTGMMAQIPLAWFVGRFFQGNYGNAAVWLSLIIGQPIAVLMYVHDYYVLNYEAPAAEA
Assay: DGAT1 FlashPlate inhibition assay with DGAT1 membrane preparations
Type: biochemical
Conditions: IC50 values expressed in M; pIC50 = -logIC50; inhibition of DGAT1 activity
Answer as a quantity: numeral, then unit.

IN: IC50 of Cc1cc(C)n(-c2ccc(C(=O)Nc3ccc(N4CCN(C(=O)Nc5c(Cl)cccc5Cl)CC4)cc3)cc2)n1 on human DGAT1 (Homo sapiens)?
OUT: 3.89 nM

IN: Record: CC(C)OC(=O)c1ccc(-c2cccc(C(=O)Nc3ccc(N4CCN(C(=O)Nc5c(Cl)cccc5Cl)CC4)cc3)c2)cc1
OUT: 25.1 nM

IN: Record: O=C(Nc1ccc(N2CCN(C(=O)Nc3ccccc3Oc3ccccc3)CC2)cc1)c1ccccc1-c1ccc(C(F)(F)F)cc1
OUT: 3310 nM
